Numbers sourced from patent US20250052767A1.

System: T1, human CD28 (human, UniProt P10747 19-220, On cells CD28 is a disulfide linked homodimer and a glycoprotein; one copy of the chain is given.)
T1 construct: also called T-cell specific surface glycoprotein CD28
T1 sequence (P10747 19-220 limits assumed): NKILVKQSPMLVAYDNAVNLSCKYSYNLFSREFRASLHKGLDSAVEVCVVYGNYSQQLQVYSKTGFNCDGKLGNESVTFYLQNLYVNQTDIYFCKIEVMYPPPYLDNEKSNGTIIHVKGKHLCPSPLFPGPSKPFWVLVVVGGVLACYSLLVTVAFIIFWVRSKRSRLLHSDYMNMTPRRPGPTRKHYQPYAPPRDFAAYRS
Method: flow cytometry, PE-conjugated antibody on fresh human peripheral blood cells, CD3/CD28 gating
I'd be grateful if you could share measured % CD28+ population for these entries.
Give bare numbers, in %.

• exemplary anti-CD28 antibody AB8 (antibody, V domains shown, Mouse hybridoma monoclonal antibody; Conjugated to PE in the staining assays; also called antibody 8; clone 8) VH: EVKLVESGGGLVQPGGSLKLSCAASGFTFSSYTMSWVRQTPEKRLEWVAYISNGGGTTYYPDTVKGRFTISRDNAKNTLYLQMSSLKSEDTAVYYCARHRPYDYDVLDYWGQGTTLTVSS VL: DIVMTQSQKFMSTSVGDRVSITCKASQIVGTDVAWYQQKPGQSPKILIFSASNRYTGVPDRFTGSGSGTDFTLTISNMQSEDLADYFCHQYSRYPYTFGGGTKLEIK = 65
• exemplary anti-CD28 antibody AB4 (antibody, V domains shown, Mouse hybridoma monoclonal antibody; Conjugated to PE in the staining assays; also called antibody 4; clone 4) VH: EVQLQQSGPELEKPGASVKMSCKASGYSFTDYNMNWVKQSNGKSLEWIGIIDPYYGATTYNQRFKGKATLTVDKSSSTAYMQLKSLTSEDSAVYYCARFGFYGAMDYWGQGISVTVSS VL: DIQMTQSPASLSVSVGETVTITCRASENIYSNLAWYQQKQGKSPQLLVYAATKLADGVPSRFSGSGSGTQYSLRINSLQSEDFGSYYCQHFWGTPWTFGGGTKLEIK = 64.9
• exemplary anti-CD28 antibody AB2 (antibody, V domains shown, Mouse hybridoma monoclonal antibody; also called antibody 2; clone 2) VH: QVQLQQPGSELMRPGASVKLSCKASGYTFTSYWMHWVKQRHGQGLEWIGNIYPGSGRTIYDEKFKSKATLTVDTSSSTAYMHLSSLTSEDSAVFYCTRSHYGSSFDAMDYWGQGTSVTVSS VL: DIQVNQSPSSLSASLGDTITITCHASQNIYVWLNWYQQKPGNIPKLLIYKASNLHTGVPSRFSGSGSGTGFTLTISSLQPEDIATYYCQQGQSYPWTFGGGTKLEIK = 64.2

Fill in % CD28+ population for each of the 2 binders listed.
1. exemplary anti-CD28 antibody AB6 (antibody, V domains shown, Mouse hybridoma monoclonal antibody; Conjugated to PE in the staining assays; also called antibody 6; clone 6) VH: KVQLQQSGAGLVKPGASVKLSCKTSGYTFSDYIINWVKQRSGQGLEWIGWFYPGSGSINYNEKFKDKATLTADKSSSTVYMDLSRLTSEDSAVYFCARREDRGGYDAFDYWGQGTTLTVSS VL: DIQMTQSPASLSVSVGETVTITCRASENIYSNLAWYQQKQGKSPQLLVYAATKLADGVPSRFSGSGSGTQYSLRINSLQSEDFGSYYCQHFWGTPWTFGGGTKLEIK
2. exemplary anti-CD28 antibody AB5 (antibody, V domains shown, Mouse hybridoma monoclonal antibody; Conjugated to PE in the staining assays; also called antibody 5; clone 5) VH: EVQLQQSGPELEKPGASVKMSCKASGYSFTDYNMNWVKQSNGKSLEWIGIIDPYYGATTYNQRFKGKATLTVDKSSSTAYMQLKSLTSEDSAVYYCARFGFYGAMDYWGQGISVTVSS VL: DVVVTQTPLSLPVSFGDQVSISCRSSQSLANSFGNTYLSWYLHKPGQSPQLLIYGISNRFSGVPDRFSGSGSGTDFTLKISTIKPEDLGVYYCLQGTHQPFTFGSGTTLELK

a:
1. 66
2. 64.7
